Data provenance: patent US20250296953A1

test system: 60 different human tumor cell lines; settings: OVCAR-3 (Ovarian Cancer), five dose
Below, each entry is listed alongside its reported TGI.
# respond with the number and nothing more

[[record]]
compound = "C[C@]12CCc3sc(Nc4cccc(O)c4)nc3C1=CC[C@@H]1[C@@H]2CC[C@]2(C)C(=O)CC[C@@H]12 [IIa.17]"
experimental_target = "60 different human tumor cell lines"
measurement_kind = "TGI"
value = "5.08E−5"


IN: What value of TGI on 60 different human tumor cell lines does C[C@]12CCc3nc(Nc4ccc(O)cc4)sc3C1=CC[C@@H]1[C@@H]2CC[C@]2(C)C(=O)CC[C@@H]12 [IIa.35] have?
OUT: 3.38E−6

IN: Here is the next compound: C[C@]12CCc3nc(N)sc3C1=CC[C@@H]1[C@@H]2CC[C@]2(C)C(=NNC(N)=O)CC[C@@H]12 [IVb.1]
OUT: 3.44E−6

IN: Here is the next compound: C[C@]12CCc3sc(NCCc4ccccc4)nc3C1=CC[C@@H]1[C@@H]2CC[C@]2(C)C(=O)CC[C@@H]12 [IIa.2]
OUT: 4.83E−6

IN: Here is the next compound: C[C@]12CC[C@H]3[C@@H](CC=C4c5sc(-c6ccc(O)cc6)nc5CC[C@@]43C)[C@@H]1CC[C@@H]2O [III.5]
OUT: 8.37E−5

IN: Here is the next compound: C[C@]12CC[C@H]3[C@@H](CC=C4c5sc(Nc6ccccc6)nc5CC[C@@]43C)[C@@H]1CC[C@@H]2O [IIIa.10]
OUT: 2.62E−6

###

Below, each entry is listed alongside its reported Growth Percent.
system: 60 different human tumor cell lines; experiment: NCI Development Therapeutics Program 60 cell line screen, one dose; type: cell-based; conditions: CNS Cancer, SNB-75
Record the value in %, omitting the unit from your answer.

[[record]]
compound = "C[C@]12CCc3sc(NCCc4ccccc4)nc3C1=CC[C@@H]1[C@@H]2CC[C@]2(C)C(=O)CC[C@@H]12 [IIa.2]"
value = 85.55


IN: For the compound shown here, C[C@]12CCc3nc(Nc4ccc(O)cc4)sc3C1=CC[C@@H]1[C@@H]2CC[C@]2(C)C(=O)CC[C@@H]12 [IIa.35] , give the reported Growth Percent.
OUT: 41.74

IN: Here is the next compound: C[C@]12CCc3nc(N)sc3C1=CC[C@@H]1[C@@H]2CC[C@]2(C)C(=NNC(N)=O)CC[C@@H]12 [IVb.1]
OUT: 99.02

IN: Here is the next compound: C[C@]12CCc3sc(Nc4ccc(OC(F)(F)F)cc4)nc3C1=CC[C@@H]1[C@@H]2CC[C@]2(C)C(=O)CC[C@@H]12 [IIa.19]
OUT: 68.60

IN: Here is the next compound: C[C@]12CCc3sc(Nc4cccc(O)c4)nc3C1=CC[C@@H]1[C@@H]2CC[C@]2(C)C(=O)CC[C@@H]12 [IIa.17]
OUT: 37.28

IN: Here is the next compound: C[C@]12CC[C@H]3[C@@H](CC=C4c5sc(-c6ccc(O)cc6)nc5CC[C@@]43C)[C@@H]1CC[C@@H]2O [III.5]
OUT: 26.42

IN: Here is the next compound: C[C@]12CCc3sc(Nc4ccc(F)cc4F)nc3C1=CC[C@@H]1[C@@H]2CC[C@]2(C)C(=O)CC[C@@H]12 [IIa.10]
OUT: 69.43

IN: Here is the next compound: CN(c1ccccc1)c1nc2c(s1)CC[C@@]1(C)C2=CC[C@@H]2[C@@H]1CC[C@]1(C)C(=O)CC[C@@H]21 [IIa.6]
OUT: 73.17

IN: Here is the next compound: C[C@]12CC[C@H]3[C@@H](CC=C4c5sc(Nc6ccccc6)nc5CC[C@@]43C)[C@@H]1CC[C@@H]2O [IIIa.10]
OUT: −5.43

###

system: SK-MEL-5; assay: Melanoma cytotoxicity assay (resazurin); type: cell-based; details: human, 24 h
Binary label based on SK-MEL-5 (% viability) with cut-off 10%: below gives class 1, not below gives class 0.

IN: Given C=CCNc1nc2c(s1)C1=CC[C@H]3[C@@H]4CC[C@H](O)[C@@]4(C)CC[C@@H]3[C@@]1(C)CC2 [IIIa.6] , is recorded SK-MEL-5 (% viability) strictly lower than 10%?
OUT: class 1

IN: Here is the next molecule: C[C@]12CC[C@H]3[C@@H](CC=C4c5sc(NCCc6ccccc6)nc5CC[C@@]43C)[C@@H]1CC[C@@H]2O [IIIa.5]
OUT: class 1

IN: Here is the next molecule: C[C@]12CC[C@H]3[C@@H](CC=C4c5sc(Nc6ccc(C(=O)O)cc6)nc5CC[C@@]43C)[C@@H]1CC[C@@H]2O [IIIa.26]
OUT: class 0

IN: Here is the next molecule: CC(=O)Nc1nc2c(s1)C1=CC[C@H]3[C@@H]4CC[C@H](O)[C@@]4(C)CC[C@@H]3[C@@]1(C)CC2 [IIIa.37]
OUT: class 0

IN: Here is the next molecule: CCNc1nc2c(s1)C1=CC[C@H]3[C@@H]4CC[C@H](O)[C@@]4(C)CC[C@@H]3[C@@]1(C)CC2 [IIIa.3]
OUT: class 1

IN: Here is the next molecule: CNc1nc2c(s1)C1=CC[C@H]3[C@@H]4CC[C@H](O)[C@@]4(C)CC[C@@H]3[C@@]1(C)CC2 [IIIa.2]
OUT: class 1

###

Below, each entry is listed alongside its reported CC50.
system: 60 different human tumor cell lines; assay: cells; conditions: KM12, read-out: LC50
Record the value in µM, omitting the unit from your answer.

[[record]]
compound = "C[C@]12CC[C@H]3[C@@H](CC=C4c5sc(Nc6ccccc6)nc5CC[C@@]43C)[C@@H]1CC[C@@H]2O [IIIa.10]"
measurement_kind = "CC50"
value = 5.77


Field: next compound
IN: What value of CC50 on 60 different human tumor cell lines does C[C@]12CCc3sc(Nc4cccc(O)c4)nc3C1=CC[C@@H]1[C@@H]2CC[C@]2(C)C(=O)CC[C@@H]12 [IIa.17] have?
OUT: 94.7

###

tested on: 60 different human tumor cell lines; settings: HT29 (Colon Cancer), five dose
Below, each entry is listed alongside its reported TGI.
# respond with the number and nothing more

Example cases with answers are listed next.
[[record]]
molecule = "C[C@]12CC[C@H]3[C@@H](CC=C4c5sc(-c6ccc(O)cc6)nc5CC[C@@]43C)[C@@H]1CC[C@@H]2O [III.5]"
value = "2.04E−5"

[[record]]
molecule = "C[C@]12CCc3sc(NCCc4ccccc4)nc3C1=CC[C@@H]1[C@@H]2CC[C@]2(C)C(=O)CC[C@@H]12 [IIa.2]"
value = "8.11E−6"


Field: next molecule
IN: For the molecule shown here, C[C@]12CCc3sc(Nc4cccc(O)c4)nc3C1=CC[C@@H]1[C@@H]2CC[C@]2(C)C(=O)CC[C@@H]12 [IIa.17] , give the reported TGI.
OUT: 1.76E−5

###

Below, each entry is listed alongside its reported log10 GI50.
test system: 60 different human tumor cell lines; experiment: cells; conditions: EKVX
Heads up, the numbers here are log10 of GI50 in µM units.

IN: For the molecule shown here, C[C@]12CCc3sc(Nc4cccc(O)c4)nc3C1=CC[C@@H]1[C@@H]2CC[C@]2(C)C(=O)CC[C@@H]12 [IIa.17] , give the reported log10 GI50.
OUT: 1.46

IN: Here is the next molecule: C[C@]12CC[C@H]3[C@@H](CC=C4c5sc(Nc6ccccc6)nc5CC[C@@]43C)[C@@H]1CC[C@@H]2O [IIIa.10]
OUT: 0.44

IN: Here is the next molecule: C[C@]12CCc3sc(Nc4ccc(OC(F)(F)F)cc4)nc3C1=CC[C@@H]1[C@@H]2CC[C@]2(C)C(=O)CC[C@@H]12 [IIa.19]
OUT: 0.42

IN: Here is the next molecule: C[C@]12CC[C@H]3[C@@H](CC=C4c5sc(-c6ccc(O)cc6)nc5CC[C@@]43C)[C@@H]1CC[C@@H]2O [III.5]
OUT: 0.86

IN: Here is the next molecule: C[C@]12CCc3sc(NCCc4ccccc4)nc3C1=CC[C@@H]1[C@@H]2CC[C@]2(C)C(=O)CC[C@@H]12 [IIa.2]
OUT: 1.95

###

test system: 60 different human tumor cell lines; test: cells; conditions: UACC-62, read-out: LC50
MEASUREMENT KIND: CC50

Example cases with answers are listed next.
[[record]]
structure_notation = "C[C@]12CC[C@H]3[C@@H](CC=C4c5sc(Nc6ccccc6)nc5CC[C@@]43C)[C@@H]1CC[C@@H]2O"
measurement_kind = "CC50"
value = "8.55 µM"

[[record]]
structure_notation = "C[C@]12CCc3sc(Nc4cccc(O)c4)nc3C1=CC[C@@H]1[C@@H]2CC[C@]2(C)C(=O)CC[C@@H]12"
measurement_kind = "CC50"
value = "89.7 µM"

[[record]]
structure_notation = "C[C@]12CCc3sc(NCCc4ccccc4)nc3C1=CC[C@@H]1[C@@H]2CC[C@]2(C)C(=O)CC[C@@H]12"
measurement_kind = "CC50"
value = "> 100 µM"

[[record]]
structure_notation = "C[C@]12CCc3sc(Nc4ccc(F)cc4F)nc3C1=CC[C@@H]1[C@@H]2CC[C@]2(C)C(=O)CC[C@@H]12"
measurement_kind = "CC50"
value = "> 100 µM"


Field: next compound
IN: What value of CC50 on 60 different human tumor cell lines does C[C@]12CC[C@H]3[C@@H](CC=C4c5sc(-c6ccc(O)cc6)nc5CC[C@@]43C)[C@@H]1CC[C@@H]2O have?
OUT: > 100 µM
